target or test system: NEK7 (Homo sapiens (Human), UniProt Q8TDX7+Q96SW2)
Sequence (Q8TDX7 whole entry): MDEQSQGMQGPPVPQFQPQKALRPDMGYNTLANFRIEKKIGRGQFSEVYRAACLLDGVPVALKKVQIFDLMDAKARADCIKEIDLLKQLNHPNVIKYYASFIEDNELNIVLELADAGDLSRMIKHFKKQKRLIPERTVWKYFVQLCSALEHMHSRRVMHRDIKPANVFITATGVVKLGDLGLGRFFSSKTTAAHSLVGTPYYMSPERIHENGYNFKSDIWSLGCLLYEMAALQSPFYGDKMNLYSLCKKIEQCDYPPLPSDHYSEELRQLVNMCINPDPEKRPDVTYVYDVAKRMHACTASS
Sequence (Q96SW2 whole entry): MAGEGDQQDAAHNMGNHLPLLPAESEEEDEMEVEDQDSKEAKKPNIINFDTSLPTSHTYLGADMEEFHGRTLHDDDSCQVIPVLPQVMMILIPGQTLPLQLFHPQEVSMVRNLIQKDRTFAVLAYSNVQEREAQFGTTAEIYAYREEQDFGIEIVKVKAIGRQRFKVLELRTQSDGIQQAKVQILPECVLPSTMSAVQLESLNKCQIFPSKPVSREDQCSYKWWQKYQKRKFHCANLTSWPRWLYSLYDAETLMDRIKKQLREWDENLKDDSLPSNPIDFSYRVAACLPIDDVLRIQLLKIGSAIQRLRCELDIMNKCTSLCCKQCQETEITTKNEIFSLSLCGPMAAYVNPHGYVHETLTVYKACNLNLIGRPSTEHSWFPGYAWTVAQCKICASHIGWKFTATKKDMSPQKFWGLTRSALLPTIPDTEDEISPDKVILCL
Sequence (Q16531 2-1140 partner): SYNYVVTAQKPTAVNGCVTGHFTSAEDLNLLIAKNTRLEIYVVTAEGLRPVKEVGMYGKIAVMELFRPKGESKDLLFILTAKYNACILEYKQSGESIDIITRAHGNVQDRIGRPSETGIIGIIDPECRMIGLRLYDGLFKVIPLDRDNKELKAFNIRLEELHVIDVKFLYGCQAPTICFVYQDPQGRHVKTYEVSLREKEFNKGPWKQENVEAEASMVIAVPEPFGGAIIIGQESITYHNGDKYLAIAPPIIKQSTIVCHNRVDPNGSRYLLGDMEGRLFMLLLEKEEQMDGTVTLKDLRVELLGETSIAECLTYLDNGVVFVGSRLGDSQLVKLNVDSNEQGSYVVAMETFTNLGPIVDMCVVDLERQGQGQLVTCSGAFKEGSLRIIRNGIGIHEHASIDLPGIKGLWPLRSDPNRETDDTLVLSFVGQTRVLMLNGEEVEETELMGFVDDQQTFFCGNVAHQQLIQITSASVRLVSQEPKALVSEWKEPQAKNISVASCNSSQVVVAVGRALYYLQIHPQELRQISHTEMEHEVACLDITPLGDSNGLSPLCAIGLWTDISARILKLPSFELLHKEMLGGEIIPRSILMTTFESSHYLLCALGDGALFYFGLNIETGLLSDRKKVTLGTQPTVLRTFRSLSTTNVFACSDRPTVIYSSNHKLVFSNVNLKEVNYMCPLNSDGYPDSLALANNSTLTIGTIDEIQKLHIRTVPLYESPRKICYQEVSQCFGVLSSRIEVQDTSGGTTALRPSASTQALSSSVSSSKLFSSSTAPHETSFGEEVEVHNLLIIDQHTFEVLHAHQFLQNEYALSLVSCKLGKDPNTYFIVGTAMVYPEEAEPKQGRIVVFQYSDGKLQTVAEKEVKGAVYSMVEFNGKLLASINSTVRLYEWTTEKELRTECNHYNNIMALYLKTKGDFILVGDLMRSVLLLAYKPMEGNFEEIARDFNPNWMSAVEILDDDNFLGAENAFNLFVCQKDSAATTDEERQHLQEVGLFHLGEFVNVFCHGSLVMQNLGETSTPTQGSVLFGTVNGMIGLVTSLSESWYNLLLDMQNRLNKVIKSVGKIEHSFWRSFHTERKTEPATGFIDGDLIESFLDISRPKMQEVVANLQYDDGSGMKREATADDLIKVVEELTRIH
assay info: NEK7 NanoBiT degradation assay in Cal51 NEK7 NanoBiT cell line
Format: cell-based
test parameters: CAL-51; Cal51 NEK7 NanoBiT cells, 24 hours; read-out: NEK7 NanoBiT Dmax
measurement label: Dmax (%)

A selection of reference data follows.
>>> df
                                   compound  test_value
0  CC(C)(C(=O)NCc1cc(Cl)c(C2CCC(=O)NC2=O)c(Cl)c1)c1ccccn1 (stereo not shown) [Compound 20]          86
1  Cc1noc(C)c1C(C)(C)C(=O)NCc1cc(Cl)c(C2CCC(=O)NC2=O)c(Cl)c1 (stereo not shown) [Compound 112]          40
2  CC(C)(C(=O)NCc1cc(Cl)c([C@H]2CCC(=O)NC2=O)c(Cl)c1)c1ncccn1 (single isomer, unassigned) [Compound 180]          81
3  Cn1c(F)cc(C(C)(C)C(=O)NCc2cc(Cl)c(C3CCC(=O)NC3=O)c(Cl)c2)cc1=O (stereo not shown) [Compound 172]          97
4  COCc1ccc(C(C)(C)C(=O)NCc2cc(Cl)c(C3CCC(=O)NC3=O)c(Cl)c2)nn1 (stereo not shown) [Compound 228]          85

I: O=C1CCC(c2c(Cl)cc(CNC(=O)C3(c4ccc5cn[nH]c5c4)CCOCC3)cc2Cl)C(=O)N1 (stereo not shown) [Compound 131]
II: CC(C)(C(=O)NCc1cc(Cl)c(C2CCC(=O)NC2=O)c(Cl)c1)c1nccc(CO)n1 (stereo not shown) [Compound 215]
Query :: Hey, between I and II which has a smaller measured Dmax? # respond with the chosen item's label
Result :: II

---

Dmax reference
target or test system: NEK7 (Homo sapiens (Human), UniProt Q8TDX7+Q96SW2)
assay info: NEK7 NanoBiT degradation assay in Cal51 NEK7 NanoBiT cell line
Type: cell-based
test parameters: CAL-51; NEK7 degradation, Cal51 NEK7 NanoBiT cells, 24 hours; read-out: NanoBiT Dmax

A selection of reference data follows.
In [3]: df
Out[3]:
                                   compound  measurement_label  test_value
0  CC(C)(C(=O)NCc1cc(Cl)c(C2CCC(=O)NC2=O)c(Cl)c1)c1ccncn1 (stereo not shown) [Compound 19]               Dmax       > 75%
1  CC(C)(C(=O)NCc1cc(Cl)c(C2CCC(=O)NC2=O)c(Cl)c1)c1cnco1 (stereo not shown) [Compound 122]               Dmax   50 to 75%
2  CC(C)(C(=O)NCc1ccc(C2CCC(=O)NC2=O)c(Cl)c1)c1cnc(F)nc1 (stereo not shown) [Compound 3]               Dmax   50 to 75%
3  Cc1ccnc(C(C)(C)C(=O)NCc2cc(Cl)c(C3CCC(=O)NC3=O)c(Cl)c2)n1 (stereo not shown) [Compound 160]               Dmax       > 75%
4  COc1nc(C(C)(C)C(=O)NCc2cc(Cl)c(C3CCC(=O)NC3=O)c(Cl)c2)ncc1C (stereo not shown) [Compound 216]               Dmax       > 75%

Query :: Item: CC(C)(C(=O)NCc1cc(Cl)c(C2CCC(=O)NC2=O)c(Cl)c1)C1CCCC1 (stereo not shown) [Compound 213] Test system: NEK7 (Homo sapiens (Human), UniProt Q8TDX7+Q96SW2) Read-out: Dmax Value: ?
Result :: > 75%

Query :: Item: CC(C)(C(=O)NCc1cc(Cl)c(C2CCC(=O)NC2=O)c(Cl)c1)c1ccc(O)c(F)c1 (stereo not shown) [Compound 80] Test system: NEK7 (Homo sapiens (Human), UniProt Q8TDX7+Q96SW2) Read-out: Dmax Value: ?
Result :: > 75%

Query :: Item: CC(C)(C(=O)NCc1cc(Cl)c(C2CCC(=O)NC2=O)c(Cl)c1)c1ccc(C(F)(F)F)nn1 (stereo not shown) [Compound 191] Test system: NEK7 (Homo sapiens (Human), UniProt Q8TDX7+Q96SW2) Read-out: Dmax Value: ?
Result :: > 75%

Query :: Item: CC(C)(C(=O)NCc1ccc(C2CCC(=O)NC2=O)c(Cl)c1)c1ccccc1 (stereo not shown) [Compound 103] Test system: NEK7 (Homo sapiens (Human), UniProt Q8TDX7+Q96SW2) Read-out: Dmax Value: ?
Result :: > 75%

Query :: Item: CC(C)(C(=O)NCc1cc(Cl)c(C2CCC(=O)NC2=O)c(Cl)c1)c1ccc(C(N)=O)cc1F (stereo not shown) [Compound 51] Test system: NEK7 (Homo sapiens (Human), UniProt Q8TDX7+Q96SW2) Read-out: Dmax Value: ?
Result :: > 75%

Query :: Item: Cn1cccc(C(C)(C)C(=O)NCc2cc(Cl)c(C3CCC(=O)NC3=O)c(Cl)c2)c1=O (stereo not shown) [Compound 148] Test system: NEK7 (Homo sapiens (Human), UniProt Q8TDX7+Q96SW2) Read-out: Dmax Value: ?
Result :: 50 to 75%

Query :: Item: CC(C)(C(=O)NCc1cc(Cl)c(C2CCC(=O)NC2=O)c(Cl)c1)c1ccc(C(N)=O)cc1 (stereo not shown) [Compound 83] Test system: NEK7 (Homo sapiens (Human), UniProt Q8TDX7+Q96SW2) Read-out: Dmax Value: ?
Result :: > 75%

Query :: Item: CC(C)(C(=O)NCc1cc(F)c(C2CCC(=O)NC2=O)c(Cl)c1)c1nc2ccccc2o1 (stereo not shown) [Compound 249] Test system: NEK7 (Homo sapiens (Human), UniProt Q8TDX7+Q96SW2) Read-out: Dmax Value: ?
Result :: > 75%

---

target or test system: NEK7 (Homo sapiens (Human), UniProt Q8TDX7+Q96SW2)
assay info: NEK7 NanoBiT degradation assay in Cal51 NEK7 NanoBiT cell line
Assay type: cell-based
test parameters: CAL-51; NEK7 degradation, Cal51 NEK7 NanoBiT cells, 24 hours; read-out: NanoBiT Dmax
measurement label: Dmax

Query :: Reported Dmax, molecule Cc1cnc(C(C)(CO)C(=O)NCc2cc(Cl)c(C3CCC(=O)NC3=O)c(Cl)c2)nc1 (stereo not shown) : ____
Result :: > 75%

Query :: Reported Dmax, molecule CC(C)(C(=O)NCc1cc(Cl)c(C2CCC(=O)NC2=O)c(Cl)c1)c1ccc2ncsc2c1 (stereo not shown) : ____
Result :: > 75%

Query :: Reported Dmax, molecule CC(C)(C(=O)NCc1cc(Cl)c(C2CCC(=O)NC2=O)c(Cl)c1)c1cccc(F)c1 (stereo not shown) : ____
Result :: > 75%

Query :: Reported Dmax, molecule CC(C)(C(=O)NCc1cc(Cl)c(C2CCC(=O)NC2=O)c(Cl)c1)c1cncs1 (stereo not shown) : ____
Result :: 50 to 75%

Query :: Reported Dmax, molecule CC(C)(C(=O)NCc1cc(Cl)c(C2CCC(=O)NC2=O)c(Cl)c1)c1ccc(NS(C)(=O)=O)cc1 (stereo not shown) : ____
Result :: > 75%

Query :: Reported Dmax, molecule CC(C)(C(=O)NCc1cc(Cl)c(C2CCC(=O)NC2=O)c(Cl)c1)c1cccc(C(N)=O)c1 (stereo not shown) : ____
Result :: > 75%

Query :: Reported Dmax, molecule CC(C)(C(=O)NCc1cc(Cl)c(C2CCC(=O)NC2=O)c(Cl)c1)c1cnc(C2CC2)cn1 (stereo not shown) : ____
Result :: > 75%

---

target or test system: CRBN-DDB1 (Homo sapiens (Human), UniProt Q96SW2)
Sequence (Q96SW2 whole entry): as the sequence (Q96SW2 whole entry) above
Sequence (Q16531 whole entry partner): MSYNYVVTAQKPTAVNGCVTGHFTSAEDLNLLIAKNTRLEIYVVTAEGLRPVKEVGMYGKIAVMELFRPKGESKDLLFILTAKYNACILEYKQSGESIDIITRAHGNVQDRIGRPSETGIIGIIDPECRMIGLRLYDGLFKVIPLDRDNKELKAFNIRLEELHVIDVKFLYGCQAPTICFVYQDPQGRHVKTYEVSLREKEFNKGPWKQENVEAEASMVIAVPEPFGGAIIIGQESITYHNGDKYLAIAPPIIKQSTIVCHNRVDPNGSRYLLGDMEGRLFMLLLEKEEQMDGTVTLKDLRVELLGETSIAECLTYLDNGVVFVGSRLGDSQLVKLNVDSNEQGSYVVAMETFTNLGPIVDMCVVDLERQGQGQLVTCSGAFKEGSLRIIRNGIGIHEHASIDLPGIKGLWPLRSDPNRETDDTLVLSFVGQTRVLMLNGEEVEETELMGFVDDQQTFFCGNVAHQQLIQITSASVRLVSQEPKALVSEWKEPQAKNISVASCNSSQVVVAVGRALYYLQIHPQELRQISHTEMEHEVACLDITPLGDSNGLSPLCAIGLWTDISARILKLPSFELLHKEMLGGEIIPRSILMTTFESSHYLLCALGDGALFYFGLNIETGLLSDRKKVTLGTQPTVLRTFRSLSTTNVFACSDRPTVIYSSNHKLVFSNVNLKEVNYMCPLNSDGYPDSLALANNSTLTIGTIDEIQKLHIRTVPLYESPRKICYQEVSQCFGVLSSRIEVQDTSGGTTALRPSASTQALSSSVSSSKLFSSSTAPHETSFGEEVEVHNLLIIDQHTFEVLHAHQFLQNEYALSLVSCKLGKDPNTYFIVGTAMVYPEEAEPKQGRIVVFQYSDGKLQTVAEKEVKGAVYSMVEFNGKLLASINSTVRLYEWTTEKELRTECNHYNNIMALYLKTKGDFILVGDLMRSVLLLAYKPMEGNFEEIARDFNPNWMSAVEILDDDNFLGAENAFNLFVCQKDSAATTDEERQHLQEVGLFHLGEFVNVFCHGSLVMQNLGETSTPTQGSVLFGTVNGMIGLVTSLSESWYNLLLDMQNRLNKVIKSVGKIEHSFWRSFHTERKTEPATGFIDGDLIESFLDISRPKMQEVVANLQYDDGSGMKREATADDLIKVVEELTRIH
assay info: Compound binding to CRBN by HTRF assay
test parameters: HTRF class; Cereblon binding
pEC50: −log10 of the molar value.
pEC50 reference

A selection of reference data follows.
In [3]: df
Out[3]:
                                   compound                     target_or_test_system    test_value
0  Cc1cc(C(C)(C)C(=O)NCc2cc(Cl)c(C3CCC(=O)NC3=O)c(Cl)c2)no1 (stereo not drawn)  CRBN-DDB1 (Homo sapiens (Human), UniProt Q96SW2)  6.00 to 7.00
1  CC(C)(C(=O)NCc1cc(Cl)c(C2CCC(=O)NC2=O)c(Cl)c1)c1cnc(OC(F)(F)F)cn1 (stereo not drawn)  CRBN-DDB1 (Homo sapiens (Human), UniProt Q96SW2)        ≥ 7.00
2  COc1cnc(C(C)(C)C(=O)NCc2cc(Cl)c(C3CCC(=O)NC3=O)c(Cl)c2)nc1 (stereo not drawn)  CRBN-DDB1 (Homo sapiens (Human), UniProt Q96SW2)        ≥ 7.00
3  CC(C)(C(=O)NCc1cc(Cl)c(C2CCC(=O)NC2=O)c(Cl)c1)c1ccnc2ccccc12 (stereo not drawn)  CRBN-DDB1 (Homo sapiens (Human), UniProt Q96SW2)  6.00 to 7.00
4  CC(C)(C(=O)NCc1cc(Cl)c(C2CCC(=O)NC2=O)c(Cl)c1)c1ccc(C(N)=O)c(F)c1 (stereo not drawn)  CRBN-DDB1 (Homo sapiens (Human), UniProt Q96SW2)  6.00 to 7.00

Query :: Reported pEC50, compound CC(C)(C(=O)NCc1cc(Cl)c(C2CCC(=O)NC2=O)c(Cl)c1)c1cnc(CC(F)F)cn1 (stereo not drawn) : ____
Result :: 6.00 to 7.00

Query :: Reported pEC50, compound CC(C)(C(=O)NCc1cc(Cl)c(C2CCC(=O)NC2=O)c(Cl)c1)c1cccc(S(C)(=O)=O)c1 (stereo not drawn) : ____
Result :: ≥ 7.00

Query :: Reported pEC50, compound CC(C)(C(=O)NCc1cc(Cl)c(C2CCC(=O)NC2=O)c(Cl)c1)c1ncc(C2CC2)cn1 (stereo not drawn) : ____
Result :: 6.00 to 7.00

Query :: Reported pEC50, compound Cc1cnc(C(C)(C)C(=O)NCc2cc(Cl)c(C3CCC(=O)NC3=O)c(Cl)c2)cn1 (stereo not drawn) : ____
Result :: 6.00 to 7.00

Query :: Reported pEC50, compound COc1ccc(C(C)(C)C(=O)NCc2cc(F)c(C3CCC(=O)NC3=O)c(Cl)c2)cn1 (stereo not drawn) : ____
Result :: ≥ 7.00

Query :: Reported pEC50, compound CC(C)(C(=O)NCc1cc(Cl)c(C2CCC(=O)NC2=O)c(Cl)c1)c1nc2ccccc2o1 (stereo not drawn) : ____
Result :: ≥ 7.00

Query :: Reported pEC50, compound CC(C)(C(=O)NCc1cc(Cl)c(C2CCC(=O)NC2=O)c(Cl)c1)c1cccnc1 (stereo not drawn) : ____
Result :: ≥ 7.00

Query :: Reported pEC50, compound Cc1nnc(C(C)(C)C(=O)NCc2cc(Cl)c([C@H]3CCC(=O)NC3=O)c(Cl)c2)o1 (single isomer, unassigned) : ____
Result :: < 6.00

Query :: Reported pEC50, compound CC(C)(C(=O)NCc1cc(Cl)c(C2CCC(=O)NC2=O)c(Cl)c1)c1ccno1 (stereo not drawn) : ____
Result :: ≥ 7.00

Query :: Reported pEC50, compound CC(C)(C(=O)NCc1cc(Cl)c(C2CCC(=O)NC2=O)c(Cl)c1)c1nnc(C(F)F)o1 (stereo not drawn) : ____
Result :: 6.00 to 7.00

Measured values drawn from patent US20250243180A1 for this set.
